# TEST SUMMARY: Determination of the erythrocyte/plasma distribution ratio
# Type: in vitro ADME
# STATED CONDITIONS: freshly obtained, heparinized blood
# if value of Distribution Ratio with Erythrocytes/Plasma reaches 3, tag criterion met; if it stays below, tag criterion not met

A selection of reference data follows.
COc1ccc(S(N)(=O)=O)cc1C(=O)O[C@H]1CC[C@H]2[C@@H]3CCC4=CC(=O)CC[C@]4(C)[C@H]3CC[C@]12C    criterion not met
C[C@]12CC[C@H]3[C@@H](CCC4=CC(=O)CC[C@@]43C)[C@@H]1CC[C@@H]2OC(=O)c1ccc(S(N)(=O)=O)cc1    criterion met
C[C@]12CC[C@H]3[C@@H](CCC4=CC(=O)CC[C@@]43C)[C@@H]1CC[C@@H]2OC(=O)c1cc(S(N)(=O)=O)ccc1O    criterion not met

Could you please find out whether C[C@]12CC[C@@H]3c4ccc(OS(N)(=O)=O)cc4CC[C@H]3[C@@H]1CC[C@@H]2O [Estradiol-3-sulfamate, reference compound] has Distribution Ratio with Erythrocytes/Plasma that meets 3 or exceeds it?
criterion met

Determine whether this compound has Distribution Ratio with Erythrocytes/Plasma no lower than 3: C[C@]12CC[C@H]3[C@@H](CCC4=CC(=O)CC[C@@]43C)[C@@H]1CC[C@@H]2OC(=O)CCc1ccc(S(N)(=O)=O)cc1
criterion met

Entry C[C@]12CC[C@H]3[C@@H](CCC4=CC(=O)CC[C@@H]43)[C@@H]1CC[C@@H]2OC(=O)c1ccc(S(N)(=O)=O)cc1 : is its Distribution Ratio with Erythrocytes/Plasma no less than 3?
criterion met

Hello, I need to know if C[C@]12CC[C@H]3[C@@H](CCC4=CC(=O)CC[C@@]43C)[C@@H]1CC[C@@H]2OC(=O)c1cccc(S(N)(=O)=O)c1 has measured Distribution Ratio with Erythrocytes/Plasma not below 3. Thanks!
criterion not met
